Reference for the values: paper PMC6938011

# IC50 per entry
System: Hepatocarcinoma cells (HepG2)
experiment: Cytotoxicity evaluation, neutral red assay
Type: cell-based, human
condition notes: HepG2, 72 h, read-out: IC50^HepG2, NR Average (confidence interval-95%)

molecule: CCOC(=O)C1=C(C)N=c2sc(=Cc3cc(Cl)ccc3O)c(=O)n2C1c1ccc(OC)cc1 (stereo not drawn)
result: 22 µM

molecule: CN1CCN(c2ccc(Nc3c4ccccc4nc4ccccc34)cc2)CC1
result: 3.34 µM

Next molecule, please.
Form field, IC50 with Hepatocarcinoma cells (HepG2), item Fc1ccc2[nH]c3c(NCCCN4CCOCC4)ncnc3c2c1 : > 50 µM
